B1: ZNF24 (parent)
chain: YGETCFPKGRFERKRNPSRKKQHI

Variants of: B1
Run description: protein stability index of a GFP-peptide fusion (GPS, HEK-293T) (PSI 1-6); higher = more stable;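 note: lentivirally expressed fusions sorted by FACS into six bins by GFP to DsRed ratio, PSI derived from sequencing read proportions per bin multiplied by bin number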
Test conditions: c terminus: a fixed tail appended
protein stability index listing for selected variants.
Endpoint label: protein stability index

macromolecule_sequence="YGLTCFPKGRFERKRNPSRKKQHI [E3L]" endpoint_label="protein stability index" measured_result=2.96
macromolecule_sequence="YGETCFPKGRFERIRNPSRKKQHI [K14I]" endpoint_label="protein stability index" measured_result=2.96
macromolecule_sequence="YGETCFPKGRFERKRNTSRKKQHI [P17T]" endpoint_label="protein stability index" measured_result=3.09
macromolecule_sequence="YGETCFPKNRFERKRNPSRKKQHI [G9N]" endpoint_label="protein stability index" measured_result=3.06
macromolecule_sequence="YGEICFPKGRFERKRNPSRKKQHI [T4I]" endpoint_label="protein stability index" measured_result=3.04

# credit: the supplement of paper PMC10567573
